target: Cytochrome P450 2D6 (Homo sapiens, UniProt P10635); assay: Inhibition of recombinant human CYP2D6 expressed in insect cells microsomes using AMMC as substrate preincubated for 30 mins followed by NADP addition and measured after 45 mins by fluorescence analysis
Sequence (P10635 whole entry): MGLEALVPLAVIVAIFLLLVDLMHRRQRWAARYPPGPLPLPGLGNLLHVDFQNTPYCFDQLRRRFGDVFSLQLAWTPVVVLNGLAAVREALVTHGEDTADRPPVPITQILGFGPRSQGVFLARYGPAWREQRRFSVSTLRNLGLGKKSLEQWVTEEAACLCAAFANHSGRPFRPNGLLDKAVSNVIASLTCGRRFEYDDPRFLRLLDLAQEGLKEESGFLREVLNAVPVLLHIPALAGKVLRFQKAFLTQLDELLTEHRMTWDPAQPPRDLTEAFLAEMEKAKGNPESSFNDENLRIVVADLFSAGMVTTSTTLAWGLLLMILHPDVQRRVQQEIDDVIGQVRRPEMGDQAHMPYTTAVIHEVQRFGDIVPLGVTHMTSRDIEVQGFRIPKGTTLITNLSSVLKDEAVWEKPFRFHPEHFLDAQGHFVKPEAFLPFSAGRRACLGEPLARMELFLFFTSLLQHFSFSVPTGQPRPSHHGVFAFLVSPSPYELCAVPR
pIC50: −log10 of the molar value.
TEST_READOUT: pIC50

In the examples that follow, each entry is paired with its recorded pIC50.
INPUT_SMILES | TEST_SYSTEM | TEST_READOUT | ASSAY_RESULT
CN(C[C@H]1Cc2c(cccc2N2CCN(Cc3ccccn3)CC2)CN1)[C@H]1CCCc2cccnc21 | Cytochrome P450 2D6 (Homo sapiens, UniProt P10635) | pIC50 | 4.96
CCN1CCN(c2cccc3c2C[C@H](CN(C)[C@H]2CCCc4cccnc42)NC3)CC1 | Cytochrome P450 2D6 (Homo sapiens, UniProt P10635) | pIC50 | < 4.70
Cc1cnc(CN(C)C[C@H]2Cc3c(cccc3N3CCNCC3)CN2)c(C)c1 | Cytochrome P450 2D6 (Homo sapiens, UniProt P10635) | pIC50 | < 4.70
CN(C[C@H]1Cc2c(cccc2N2CCN(c3ncccn3)CC2)CN1)[C@H]1CCCc2cccnc21 | Cytochrome P450 2D6 (Homo sapiens, UniProt P10635) | pIC50 | 6.29
CN(C[C@H]1Cc2c(cccc2N2CCN(C3CC3)CC2)CN1)[C@H]1CCCc2cccnc21 | Cytochrome P450 2D6 (Homo sapiens, UniProt P10635) | pIC50 | 5.22
C[C@@H]1CN(c2cccc3c2C[C@H](CN(C)[C@H]2CCCc4cccnc42)NC3)C[C@H](C)N1C | Cytochrome P450 2D6 (Homo sapiens, UniProt P10635) | pIC50 | < 4.70
CN(C[C@H]1Cc2c(cccc2N2CCNC(C)(C)C2)CN1)[C@H]1CCCc2cccnc21 | Cytochrome P450 2D6 (Homo sapiens, UniProt P10635) | pIC50 | < 4.70
CN(C[C@H]1Cc2c(cccc2N2C[C@H]3C[C@@H]2CN3)CN1)[C@H]1CCCc2cccnc21 | Cytochrome P450 2D6 (Homo sapiens, UniProt P10635) | pIC50 | < 4.70

Next:
stdin: Look up pIC50 for this molecule: CN(C[C@H]1Cc2c(cccc2N2CCN3CCC[C@H]3C2)CN1)[C@H]1CCCc2cccnc21
stdout: < 4.70
